Test system: hMC1R (Homo sapiens)
Sequence (Q01726 whole entry): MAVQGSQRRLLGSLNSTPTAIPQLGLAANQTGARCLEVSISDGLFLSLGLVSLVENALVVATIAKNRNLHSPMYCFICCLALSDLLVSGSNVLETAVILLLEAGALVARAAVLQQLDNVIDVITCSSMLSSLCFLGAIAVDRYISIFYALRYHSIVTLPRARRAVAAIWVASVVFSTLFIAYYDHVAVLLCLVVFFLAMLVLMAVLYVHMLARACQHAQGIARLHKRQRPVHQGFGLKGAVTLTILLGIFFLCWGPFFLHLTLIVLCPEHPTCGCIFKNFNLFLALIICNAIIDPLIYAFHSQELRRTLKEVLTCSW
Method summary: Transactivation test (CRE-Luc luciferase, agonist mode)
Condition context: HEK293 transfected with pCRE-Luc and hMC1R; products tested alone (agonist), 6 hours; normalized to NDP-MSH 10 nM = 100%; read-out: EC50 hMC1-R
Measured metric: EC50 (nM)

a. CCCC(=O)C1(C2CCCCC2)CCN(C(=O)[C@@H](Cc2ccc(OC)cc2)NC(=O)NCCc2c[nH]cn2)CC1 [Compound 40]
b. CCOC(=O)C1(C2CCCCC2)CCN(C(=O)[C@@H](Cc2ccc(OC)cc2)NC(=O)NCCc2c[nH]cn2)CC1 [Compound 34]
Compare EC50: is it lower for a or for b ? Please reply using the label of the selected record.
b
